Reported values of IC50 for individual entries
test system: HepG2 cells; experiment: MTT cytotoxicity analysis, liver cancer cells HepG2; assay type: cell-based, human; conditions: HepG2 liver cancer cells, 48 hours of treatment, Lipofectamine RNAiMAX transfection reagent, MTT; read-out: Median inhibitory concentration IC50
Give the value in nM but do not write nM after it.

MOLECULE: GL11 mimic: chemically modified GL2 double-stranded RNA (5-methyluridine); antisense SEQ ID NO: 21, sense SEQ ID NO: 25, length 41 (nucleic acid, RNA, backbone not given here; further chemistry not fully specified) antisense: AUAAGGAAUCUGUAGAAGTUCGAUUCUUCUUGGGCUUACCA sense: UGGUAAGCCCAAGAAGAAUCGAACUUCUACAGAUUCCUUAU
IC50, nM: 85.3

Please find the next molecule below.
For record GL2 mimic: double-stranded RNA from Ganoderma lucidum tRNA-Ile(GAU); antisense SEQ ID NO: 3, sense SEQ ID NO: 12, length 41 (nucleic acid, RNA, backbone not given here) antisense: AUAAGGAAUCUGUAGAAGUUCGAUUCUUCUUGGGCUUACCA sense: UGGUAAGCCCAAGAAGAAUCGAACUUCUACAGAUUCCUUAU the listed IC50 is 240
